Values were extracted from patent US20050267016A1.

Test system: HL60 cells (CD10 negative)
measurement-description: Proliferation of HL60 cells with supernatant from compound-treated CHO cells
Type: cell-based
condition-notes: Homo sapiens, HL-60, 24 h, supernatant of Parental CHO, collected 24 hours after exposure
readout-name: IC50 (nM)
The figure you give is taken to be in nM; do not add the unit.

Using known records, supply IC50 for COc1cccc2c1C(=O)c1c(O)c3c(c(O)c1C2=O)C[C@@](O)(C(=O)CO)C[C@@H]3O[C@H]1C[C@H](N)[C@H](O)[C@H](C)O1 [Doxorubicin, reference compound]
279

----------
System: HL60 cells (CD10 negative)
measurement-description: Proliferation of HL60 cells with supernatant from compound-treated CHO cells
Format: cell-based
condition-notes: Homo sapiens, HL-60, 24 h, HL60 fresh compound, 24 hours
readout-name: pIC50
The meaning of pIC50 here: minus log10 of the concentration in molar units.

Supply measured pIC50 of COc1cccc2c1C(=O)c1c(O)c3c(c(O)c1C2=O)C[C@@](O)(C(=O)CO)C[C@@H]3O[C@H]1C[C@H](N)[C@H](O)[C@H](C)O1 [Doxorubicin, reference compound] in your reply.
6.79

----------
Test system: Porcine Kidney CD10
measurement-description: Hydrolysis by purified CD10
Type: biochemical
condition-notes: standard Suc-βAla-Leu-Ala-Leu-Dox
Description: Reaction products were analyzed by HPLC with fluorescence detection. Rates were essentially linear over the incubation period. The observed product was Leu-doxorubicin.
readout-name: Fraction hydrolyzed relative to standard
// no unit, no text: just the number

Worked examples follow.
compound="COc1cccc2c1C(=O)c1c(O)c3c(c(O)c1C2=O)C[C@@](O)(C(=O)CO)C[C@@H]3O[C@H]1C[C@H](NC(=O)[C@H](CC(C)C)NC(=O)[C@H](C)NC(=O)[C@H](CC(C)C)NC(=O)CCC(=O)O)[C@H](O)[C@H](C)O1 [Suc-Leu-Ala-Leu-Dox]" target_or_system="Porcine Kidney CD10" measurement=0.75
compound="COc1cccc2c1C(=O)c1c(O)c3c(c(O)c1C2=O)C[C@@](O)(C(=O)CO)C[C@@H]3O[C@H]1C[C@H](NC(=O)[C@H](CC(C)C)NC(=O)[C@H](C)NC(=O)[C@H](CC(C)C)NC(=O)CCNC(=O)CCC(=O)O)[C@H](O)[C@H](C)O1 [Suc-βAla-Leu-Ala-Leu-Dox]" target_or_system="Porcine Kidney CD10" measurement=1.0
compound="CC[C@H](C)[C@H](NC(=O)CCC(=O)O)C(=O)N[C@@H](C)C(=O)N[C@@H](CC(C)C)C(=O)N[C@H]1C[C@H](O[C@H]2C[C@](O)(C(=O)CO)Cc3c(O)c4c(c(O)c32)C(=O)c2c(OC)cccc2C4=O)O[C@@H](C)[C@H]1O [Suc-Ile-Ala-Leu-Dox]" target_or_system="Porcine Kidney CD10" measurement=1.1

Look up and report measured Fraction hydrolyzed relative to standard for this entry: COc1cccc2c1C(=O)c1c(O)c3c(c(O)c1C2=O)C[C@@](O)(C(=O)CO)C[C@@H]3O[C@H]1C[C@H](NC(=O)CNC(=O)[C@H](C)NC(=O)[C@H](CC(C)C)NC(=O)CCC(=O)O)[C@H](O)[C@H](C)O1 [Suc-Leu-Ala-Gly-Dox]
0

Provide one value: measured Fraction hydrolyzed relative to standard of CC[C@H](C)[C@H](NC(=O)CCNC(=O)CCC(=O)O)C(=O)N[C@@H](C)C(=O)N[C@@H](CC(C)C)C(=O)N[C@H]1C[C@H](O[C@H]2C[C@](O)(C(=O)CO)Cc3c(O)c4c(c(O)c32)C(=O)c2c(OC)cccc2C4=O)O[C@@H](C)[C@H]1O [Suc-βAla-Ile-Ala-Leu-Dox]
2.0

----------
Tested on: PC-3 (prostate carcinoma) cells
measurement-description: cells
Format: cell-based, human
condition-notes: Homo sapiens, PC-3; 48 hours total incubation; read-out: IC50 PC-3
readout-name: pIC50
// pIC50: -log10(molar conc.)

Provide pIC50, tested on PC-3 (prostate carcinoma) cells, for COc1cccc2c1C(=O)c1c(O)c3c(c(O)c1C2=O)C[C@@](O)(C(=O)CO)C[C@@H]3O[C@H]1C[C@H](N)[C@H](O)[C@H](C)O1 [Doxorubicin, reference compound] .
7.12

----------
measurement-description: in vivo
condition-notes: female, ICR, mouse, iv, 10 umol/kg
readout-name: AUC(0-t)
Dear colleague, please send the value followed by its unit.

Hello, please tell me recorded AUC(0-t) for this one: COc1cccc2c1C(=O)c1c(O)c3c(c(O)c1C2=O)C[C@@](O)(C(=O)CO)C[C@@H]3O[C@H]1C[C@H](N)[C@H](O)[C@H](C)O1 [Doxorubicin, reference compound]
3.3 µM·h

----------
measurement-description: Pharmacokinetic/metabolism study, single IV bolus
condition-notes: mice
readout-name: Major Plasma Metabolite

structure_notation=COc1cccc2c1C(=O)c1c(O)c3c(c(O)c1C2=O)C[C@@](O)(C(=O)CO)C[C@@H]3O[C@H]1C[C@H](NC(=O)[C@H](CC(C)C)NC(=O)[C@H](C)NC(=O)[C@H](CC(C)C)NC(=O)CCC(=O)O)[C@H](O)[C@H](C)O1 measurement=Leu-Dox
structure_notation=CC[C@H](C)[C@H](NC(=O)CCNC(=O)CCC(=O)O)C(=O)N[C@@H](C)C(=O)N[C@@H](CC(C)C)C(=O)N[C@H]1C[C@H](O[C@H]2C[C@](O)(C(=O)CO)Cc3c(O)c4c(c(O)c32)C(=O)c2c(OC)cccc2C4=O)O[C@@H](C)[C@H]1O measurement=Leu-Dox
structure_notation=CC[C@H](C)[C@H](NC(=O)CCC(=O)O)C(=O)N[C@@H](C)C(=O)N[C@@H](CC(C)C)C(=O)N[C@H]1C[C@H](O[C@H]2C[C@](O)(C(=O)CO)Cc3c(O)c4c(c(O)c32)C(=O)c2c(OC)cccc2C4=O)O[C@@H](C)[C@H]1O measurement=Leu-Dox

----------
Tested on: CD10 transfected CHO cells, Clone #7
measurement-description: 3H thymidine proliferation assay, CD10 transfected CHO Clone #7
condition-notes: Cricetulus griseus, CHO, read-out: IC50 Clone #7
readout-name: pIC50
Reminder that pIC50 is minus the log10 of a molar concentration.

State, in one line, measured pIC50 of COc1cccc2c1C(=O)c1c(O)c3c(c(O)c1C2=O)C[C@@](O)(C(=O)CO)C[C@@H]3O[C@H]1C[C@H](N)[C@H](O)[C@H](C)O1 [Doxorubicin, reference compound]
6.19

----------
Test system: Ramos cells (CD10pos)
measurement-description: cells
condition-notes: Homo sapiens, Ramos, 24 h, read-out: IC50 Ramos
readout-name: IC50

Check the records and state IC50 for COc1cccc2c1C(=O)c1c(O)c3c(c(O)c1C2=O)C[C@@](O)(C(=O)CO)C[C@@H]3O[C@H]1C[C@H](N)[C@H](O)[C@H](C)O1 [Doxorubicin, reference compound]
10 nM

----------
measurement-description: Repeat-dose MTD in tumor bearing mice
Type: in vivo
condition-notes: mouse, in vivo; Q 7D × 5, tumor bearing mice
readout-name: MTD at 60 days
Please state the number and follow it with the unit.

Determine from records and report MTD at 60 days for COc1cccc2c1C(=O)c1c(O)c3c(c(O)c1C2=O)C[C@@](O)(C(=O)CO)C[C@@H]3O[C@H]1C[C@H](N)[C@H](O)[C@H](C)O1 [Doxorubicin, reference compound]
4 mg/kg

----------
Tested on: PC-3 (prostate carcinoma) cells
measurement-description: cells
Type: cell-based, human
condition-notes: Homo sapiens, PC-3; Table 6, 48 hours; read-out: IC50 PC-3 CD10−PSA−
readout-name: IC50 (nM)
Answer with a number only, understood to be in nM.

Identify the reported IC50 for the following entry. COc1cccc2c1C(=O)c1c(O)c3c(c(O)c1C2=O)C[C@@](O)(C(=O)CO)C[C@@H]3O[C@H]1C[C@H](N)[C@H](O)[C@H](C)O1 [Doxorubicin, reference compound]
40

----------
System: Namalwa cells (CD10pos)
measurement-description: cells
Format: cell-based
condition-notes: ratio of IC50
Description: Suspension cells, BALL-1, Ramos and Namalwa cells were cultured in RPMI media containing 10% heat inactivated fetal calf serum (FCS). On the day of the study, the cells were collected, washed and resuspended at a concentration of 0.5×10^6 cells/ml in RPMI containing 10% FCS. 100 µl of cell suspension was added to 96 well plates. […] The plates were harvested using a 96 well Harvester (Packard Instruments) and counted on a Packard Top Count counter. […]
Attribute: Ratio Ball-1:Namalwa
Just the number, please.

Past entries and their recorded results:
structure_notation=COc1cccc2c1C(=O)c1c(O)c3c(c(O)c1C2=O)C[C@@](O)(C(=O)CO)C[C@@H]3O[C@H]1C[C@H](NC(=O)CNC(=O)[C@H](C)NC(=O)[C@H](CC(C)C)NC(=O)CCC(=O)O)[C@H](O)[C@H](C)O1 measurement=1
structure_notation=CC[C@H](C)[C@H](NC(=O)CCNC(=O)CCC(=O)O)C(=O)N[C@@H](C)C(=O)N[C@@H](CC(C)C)C(=O)N[C@H]1C[C@H](O[C@H]2C[C@](O)(C(=O)CO)Cc3c(O)c4c(c(O)c32)C(=O)c2c(OC)cccc2C4=O)O[C@@H](C)[C@H]1O measurement=172
structure_notation=CC[C@H](C)[C@H](NC(=O)CCC(=O)O)C(=O)N[C@@H](C)C(=O)N[C@@H](CC(C)C)C(=O)N[C@H]1C[C@H](O[C@H]2C[C@](O)(C(=O)CO)Cc3c(O)c4c(c(O)c32)C(=O)c2c(OC)cccc2C4=O)O[C@@H](C)[C@H]1O measurement=4

Now look at this entry.
Retrieve Ratio Ball-1:Namalwa on Namalwa cells (CD10pos); query COc1cccc2c1C(=O)c1c(O)c3c(c(O)c1C2=O)C[C@@](O)(C(=O)CO)C[C@@H]3O[C@H]1C[C@H](NC(=O)[C@H](CC(C)C)NC(=O)[C@H](C)NC(=O)[C@H](CC(C)C)NC(=O)CCNC(=O)CCC(=O)O)[C@H](O)[C@H](C)O1
3
